Assign viability at 1000 µM to each entry below.
- Method Notes: Cytoprotective activity against MG-induced cytotoxicity in human EAhy926 cells assessed as viable cells at 1 mM after 48 hrs by MTT assay
- Test Conditions: EA.hy 926
Where a SMILES comes first, the peptide text is derived from it. [ ]: non-standard residue; d: D form. dDap = NC[C@@H](N)C(=O)O
Answers are plain numbers, in %.

// solved cases for viability at 1000 µM follow
{"Compound": "CC(C)C[C@@H](NC(=O)[C@@H](N)CN)C(=O)O", "Unit Annotation": "%", "viability at 1000 µM": 71}
{"Compound": "C[C@@H](NC(=O)[C@H](N)CN)C(=O)O (H-[dDap]-[dA]-OH)", "Unit Annotation": "%", "viability at 1000 µM": 71}

Lab note: next compound to report on.
Would you mind telling me what viability at 1000 µM value was observed for CC(C)C[C@H](NC(=O)[C@@H](N)CN)C(=O)O ?
69
